Catalogue of binders with associated Phage binding ELISA signal, Anti-PSMA Fab
- target_of_assay: T1, PSMA Fab
- T1 construct: also called Anti-PSMA Fab; 006 PSMA Fab
- measurement_protocol: phage ELISA, biotinylated PSMA Fab on neutravidin plate, bound phage detected with anti-M13-HRP
Where no end group is shown, it is not given here.
No unit in the answer, only the number.

| binder | obs_value |
| --- | --- |
| LERWCIPDWMCEWP [Phage-2394] | 1.37 |
| WVKWCTPPWMCEWD [Phage-2389] | 1.38 |
| LEKWCRPAWMCNGM [Phage-2393] | 1.38 |
| VMKWCTPEWMCQVF [Phage-2402] | 1.37 |
| FPKWCTPSWMCDFV [Phage-2391] | 1.38 |
| SPKWCTPSWMCELQ [Phage-2392] | 1.38 |

For record IEKWCIPQWMCGNP (cysteine pairing not given here; also: fused to phage pIII (clonal phage display)) [Phage-2403] the listed Phage binding ELISA signal, Anti-PSMA Fab is 1.36

meta.source: patent US20260242478A1
